assay: inhibitors of the yeast RAM network, pilot screen, dse1pr::URA3 reporter, 5-FOA selection (AID 869);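 note: 0% = DMSO wells with no growth and 100% = 10 µM 1-NA-PP1 with full growth; RAM network block rescues cells from 5-FOA so hits raise OD615 growth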; details: S. cerevisiae dse1pr::URA3 5-FOA growth, OD615, 2 d; at 10 µM; hits give high values; strain carries analog-sensitive mutant Cbk1 kinase
Active and inactive are the calls of the source.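 Rule for the calls: active = inhibition over a set limit, the all-compound mean plus 3 SD, in both replicate runs; inconclusive = over that limit in just one replicate run; inactive = at or under that limit in both runs.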
readout: inhibition

Answered cases to consult:
Exercise: Requested field: inhibition. Item: "CCOc1ccc(C(=O)c2nc3c(n2O)CCCC3)cc1"
Solution: 1.41% (inactive)

Exercise: Requested field: inhibition. Item: "CC(=O)Nc1ccc(C(=O)c2ccccc2)cc1"
Solution: 0.97% (inactive)

Exercise: Requested field: inhibition. Item: "CC(=O)Nc1sc(N)nc1-c1ccccc1"
Solution: 0.055% (inactive)

Exercise: Requested field: inhibition. Item: "NC(=O)CSc1oc(-c2ccc(F)cc2)nc1S(=O)(=O)c1ccccc1"
Solution: 0.73% (inactive)

Exercise: Requested field: inhibition. Item: "Cc1nc(C)c(C(=O)Nc2cccc(C)c2C)o1"
Solution: 3.58% (inactive)

Exercise: Requested field: inhibition. Item: Cc1cc(C)n(-c2ncnc3sc4c(c23)CC(C)CC4)n1 (stereo not given)
Solution: 1.6% (inactive)

Exercise: Requested field: inhibition. Item: "O=C(O)c1cc2nc(C3CC3)cc(C(F)(F)F)n2n1"
Solution: 1.67% (inactive)

Exercise: Requested field: inhibition. Item: "Cc1ccc(C(=O)Nc2ccc(S(=O)(=O)N3CCN(C)CC3)cc2)o1"
Solution: 1.32% (inactive)

Exercise: Requested field: inhibition. Item: O=C(CC1Sc2ccccc2NC1=O)Nc1cccc(C(=O)O)c1 (stereo not given)
Solution: 1.14% (inactive)

Next:
Exercise: Requested field: inhibition. Item: "O=C(CSc1nccc2ccccc12)N1CCN(c2ccccn2)CC1"
Solution: 0.295% (inactive)

###

test: OD615 S. cerevisiae growth inhibition, permissive medium, pilot counter-assay, permissive growth control for S. cerevisiae lifespan shortening project (AID 705); conditions: OD615, 24 h, at 10 µM
Activity calls are given as the source filed them.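 How the source made its calls: active means growth inhibition above 25% in both replicates, a cutoff set 3 SD above the mean; inconclusive means above 25% in only one replicate; inactive means the rest.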
Field 'call' accepts 1 (yes) = active, 0 (no) = inactive

Please review the following examples before continuing.
Exercise: What was the test verdict on "CCOC(=O)c1c(N)sc(C(=O)N2CCCCCC2)c1C" ?
Solution: 0 (no)

Exercise: What was the test verdict on "COc1ccccc1NC(=O)c1ccc(N)cc1" ?
Solution: 0 (no)

Exercise: What was the test verdict on "CCCCn1c(=O)cc(N2CCOCC2)[nH]c1=O" ?
Solution: 0 (no)

Exercise: What was the test verdict on "O=C(Nc1sc2c(c1C(=O)O)CCCC2)c1cccs1" ?
Solution: 0 (no)

Exercise: What was the test verdict on "CC(=NCCN1CCOCC1)C1=C(O)c2ccccc2C1=O" ?
Solution: 0 (no)

Exercise: What was the test verdict on "CCOC(=O)c1c(C)nc(-c2ccccc2)nc1NC(C)=O" ?
Solution: 0 (no)

Next:
Exercise: What was the test verdict on Cc1[nH]c(=O)[nH]c(=O)c1S(=O)(=O)N1CCCC(C(=O)N2CCC(Cc3ccccc3)CC2)C1 (stereo not given) ?
Solution: 0 (no)

Exercise: What was the test verdict on "c1ccc(-c2nnc(-c3ccccn3)nn2)nc1" ?
Solution: 1 (yes)

Exercise: What was the test verdict on "COc1ccccc1NC(=O)CSc1nc2sc(C)c(C)c2c(=O)n1Cc1ccco1" ?
Solution: 0 (no)

Exercise: What was the test verdict on "COC(=O)C1=C(C)N(C)C(C)=C(C(=O)OC)C1c1ccccc1C" ?
Solution: 0 (no)

Exercise: What was the test verdict on "CCN(CCNS(=O)(=O)c1ccc2c(c1)oc(=O)n2C)c1ccccc1" ?
Solution: 0 (no)

Exercise: What was the test verdict on "N#Cc1nc(-c2ccccc2F)oc1NCc1ccccc1" ?
Solution: 0 (no)

Exercise: What was the test verdict on CCC(C)OC(=O)C1=C(C)NC(=O)NC1c1ccc(F)cc1 (stereo not given) ?
Solution: 0 (no)

Exercise: What was the test verdict on CCC(C)NC(=O)C(Cc1ccccc1)n1cccc1 (stereo not given) ?
Solution: 0 (no)

Exercise: What was the test verdict on "Cn1cnc2c1c(=O)n(Cc1ccccc1)c(=O)n2C" ?
Solution: 0 (no)

###

experiment: growth suppression of beta-catenin knockout HCT116, pilot screen, human colon tumor cells (AID 823); conditions: CellTiter-Glo, 60 h, at 10 µM, hits give low values;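 note: 0% = wells killed by 20 µM Hyamine and 100% = untreated DMSO cell wells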
Results filed as inconclusive are left out.
Doc: threshold 90% (exclusive). Items with viability beneath it return 1 (yes); others return 0 (no).

Exercise: Does this compound meet the criterion viability < 90%? O=C(c1ccc2c(c1)C(=O)N(Cc1ccco1)C2O)N1CCOCC1 (centres undefined)
Solution: 0 (no)

Exercise: Does this compound meet the criterion viability < 90%? CCOC(=O)C1=C(SCC(=O)Nc2ccccc2)NC(=O)C(C#N)C12CCCCC2 (centres undefined)
Solution: 1 (yes)

Exercise: Does this compound meet the criterion viability < 90%? COc1ccc(Cl)cc1NC(=O)C1CCCO1 (centres undefined)
Solution: 0 (no)

Exercise: Does this compound meet the criterion viability < 90%? "COc1ccc(NC(=O)c2ccc3c(c2)n(C)c(=O)n3C)cc1"
Solution: 1 (yes)

Exercise: Does this compound meet the criterion viability < 90%? "CC(=O)c1ccc(NC(=O)CSc2nnc(Cn3c(=O)sc4ccccc43)n2C)cc1"
Solution: 0 (no)

Exercise: Does this compound meet the criterion viability < 90%? O=C1C2ON(c3ccccc3)C(c3ccncc3)C2C(=O)N1c1ccc(N2CCOCC2)cc1 (centres undefined)
Solution: 0 (no)

Exercise: Does this compound meet the criterion viability < 90%? Cc1nnc(NC(=O)CSc2nc3c(c(=O)n2CCc2ccccc2)SC(C)C3)s1 (centres undefined)
Solution: 0 (no)

Exercise: Does this compound meet the criterion viability < 90%? "O=C(CSc1nc2cc(Cl)ccc2s1)c1ccco1"
Solution: 0 (no)

Next:
Exercise: Does this compound meet the criterion viability < 90%? CC1CN(CCC(=O)Nc2ccc3c(c2)CCC3)CC(C)O1 (centres undefined)
Solution: 0 (no)

Exercise: Does this compound meet the criterion viability < 90%? "c1ccc(-c2nnc(-c3ccccn3)nn2)nc1"
Solution: 1 (yes)

Exercise: Does this compound meet the criterion viability < 90%? O=C(COC(=O)c1ccc(Br)c(S(=O)(=O)N2CCOCC2)c1)NCC1CCCO1 (centres undefined)
Solution: 0 (no)

Exercise: Does this compound meet the criterion viability < 90%? "CCOC(=O)N1CCC(NC(=O)Cn2cc3c(n2)CCCC3)CC1"
Solution: 0 (no)

Exercise: Does this compound meet the criterion viability < 90%? "C(#Cc1ccc(C#CCN2CCOCC2)cc1)CN1CCOCC1"
Solution: 1 (yes)

Exercise: Does this compound meet the criterion viability < 90%? "CCc1c(C)sc(NC(=O)c2cc(C)no2)c1C#N"
Solution: 0 (no)

Exercise: Does this compound meet the criterion viability < 90%? Cc1cccc(-c2nc(CS(=O)CC(=O)N3CCc4ccccc4C3)c(C)o2)c1 (centres undefined)
Solution: 1 (yes)

###

experiment: OD615 S. cerevisiae growth inhibition, permissive medium, pilot counter-assay, permissive growth control for S. cerevisiae lifespan shortening project (AID 705); settings: OD615, 24 h, at 10 µM, hits give high values
Give measured growth inhibition for each item. Keep answers brief.
Numbers only, in %.

Exercise: Requested field: growth inhibition. Item: "COCC(=O)NCCc1nc2ccccc2[nH]1"
Solution: -0.385

Exercise: Requested field: growth inhibition. Item: "CCCS(=O)(=O)c1nc(S(=O)(=O)c2ccc(C)cc2)c(NCCN2CCOCC2)s1"
Solution: -8.93

Exercise: Requested field: growth inhibition. Item: COc1ccc(C2C(C(=O)N3CCOCC3)CCC(=O)N2c2cc(OC)c(OC)c(OC)c2)cc1 (centres undefined)
Solution: -10.2

Exercise: Requested field: growth inhibition. Item: "O=C(NCCc1csc(-c2cccnc2)n1)c1ccc(Br)o1"
Solution: 1.56

Exercise: Requested field: growth inhibition. Item: "O=C(C1CC1)N1CCc2cc(Br)cc(S(=O)(=O)NC3CCCCC3)c21"
Solution: -3.11

Hi there! I need growth inhibition for each item below, if you can.
1. CCOC(=O)N1CCC(Nc2c(N3CCN(c4cc(Cl)ccc4C)CC3)c(=O)c2=O)CC1
2. O=C(CC1Oc2ccccc2NC1=O)NC1CC1 (centres undefined)
3. Cc1cccc(Nc2ncnc3nc[nH]c23)c1
4. CCOC(=O)N1CCN(C(=O)c2ccccc2Oc2ccccc2)CC1

Solution:
[3.09, -1.45, 3.02, -5.57]

Hi there! I need growth inhibition for each item below, if you can.
1. CCC1CCCCN1C(=O)CSc1nc(N)c(NC(=O)c2ccco2)c(=O)[nH]1 (centres undefined)
2. O=C(Nc1ccc(N2CCOCC2)cc1)NC1CCCCC1
3. O=C(NCCc1ccc(Cl)cc1)c1nnc(Cc2ccc(Cl)cc2)o1

Solution:
1: 12.5; 2: -0.89; 3: -3.81

Hi there! I need growth inhibition for each item below, if you can.
1. CC(=O)N1CCC2(CC1)C(C#N)=C(N)Oc1n[nH]c(C)c12
2. COc1cccc(C2NC(=O)NC(C)=C2C(=O)OCCSC)c1OC (centres undefined)

Solution:
-6.98
-3.21

Origin of the recorded values: PubChem BioAssay
